Source: PubChem BioAssay AID1919008

Test system: DMS-114 complex spheroids with HUVEC/MSC, growth % test/control
Test: Anticancer human tumor DMS-114 cell line growth inhibition [AhR]
Details: second compound 0.316 µM; first compound 3 µM; hits give low values
Let's look at some compounds and their measured viability, T/C.
Write the answer as a number in %, unit excluded.

{"columns": ["Compound", "Readout label", "Readout number"],
 "data": [
  ["CCN(c1cc(-c2ccc(CN3CCOCC3)cc2)cc(C(=O)NCc2c(C)cc(C)[nH]c2=O)c1C)C1CCOCC1 + Cc1cncc(-c2nc(NCCc3c[nH]c4ccccc34)c3ncn(C(C)C)c3n2)c1", "viability, T/C", 59],
  ["CCN(c1cc(-c2ccc(CN3CCOCC3)cc2)cc(C(=O)NCc2c(C)cc(C)[nH]c2=O)c1C)C1CCOCC1 + Cc1ccccc1N=Nc1ccc(NC(=O)c2ccnn2C)c(C)c1", "viability, T/C", 100],
  ["O=C(C=Cn1cnc(-c2cc(C(F)(F)F)cc(C(F)(F)F)c2)n1)NNc1cnccn1 + Cc1cncc(-c2nc(NCCc3c[nH]c4ccccc34)c3ncn(C(C)C)c3n2)c1", "viability, T/C", 5.66],
  ["O=C(C=Cn1cnc(-c2cc(C(F)(F)F)cc(C(F)(F)F)c2)n1)NNc1cnccn1 + Cc1ccccc1N=Nc1ccc(NC(=O)c2ccnn2C)c(C)c1", "viability, T/C", 17.4],
  ["O=C(C=Cn1cnc(-c2cc(C(F)(F)F)cc(C(F)(F)F)c2)n1)NNc1cnccn1 + CC(CO)NC(=O)c1cc(-c2ccc(Cl)cc2)nn(-c2cnn(C)c2)c1=O", "viability, T/C", 7.29]
]}

In the following, a different compound is considered.
Data request: What value of viability, T/C on DMS-114 complex spheroids with HUVEC/MSC, growth % test/control does CCN(c1cc(-c2ccc(CN3CCOCC3)cc2)cc(C(=O)NCc2c(C)cc(C)[nH]c2=O)c1C)C1CCOCC1 + CC(CO)NC(=O)c1cc(-c2ccc(Cl)cc2)nn(-c2cnn(C)c2)c1=O have?
Data returned: 93

---

Test system: DMS-114 complex spheroids with HUVEC/MSC, growth % test/control
Assay: Anticancer human tumor DMS-114 cell line growth inhibition [AhR];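 also: spheroids exposed to agents for 7 days before readout; 100% = DMSO vehicle control wells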
Details: second compound 1 µM; first compound 0.03 µM; hits give low values
Readout label: viability, T/C (%)
Numeric only. Scale: %

Data request: Look up viability, T/C for this molecule: O=C(C=Cn1cnc(-c2cc(C(F)(F)F)cc(C(F)(F)F)c2)n1)NNc1cnccn1 + Cc1ccccc1N=Nc1ccc(NC(=O)c2ccnn2C)c(C)c1
Data returned: 124

Data request: Value lookup for viability, T/C; key = Nc1ncn(C2CC(O)C(CO)S2)c(=O)n1 (centres undefined) + Cc1ccccc1N=Nc1ccc(NC(=O)c2ccnn2C)c(C)c1
Data returned: 105

Data request: Recorded viability, T/C for CCc1c2c(nc3ccc(O)cc13)-c1cc3c(c(=O)n1C2)COC(=O)[C@]3(O)CC + CC(CO)NC(=O)c1cc(-c2ccc(Cl)cc2)nn(-c2cnn(C)c2)c1=O , please?
Data returned: 15.4

Data request: What measured viability, T/C goes with CCN(c1cc(-c2ccc(CN3CCOCC3)cc2)cc(C(=O)NCc2c(C)cc(C)[nH]c2=O)c1C)C1CCOCC1 + Cc1ccccc1N=Nc1ccc(NC(=O)c2ccnn2C)c(C)c1 ?
Data returned: 101

Data request: Which viability, T/C is reported for this molecule? CC(C)CC(NC(=O)C(Cc1ccccc1)NC(=O)c1cnccn1)B(O)O (centres undefined) + Cc1ccccc1N=Nc1ccc(NC(=O)c2ccnn2C)c(C)c1
Data returned: 0.41

Data request: Could you share which viability, T/C value was measured for CCN(c1cc(-c2ccc(CN3CCOCC3)cc2)cc(C(=O)NCc2c(C)cc(C)[nH]c2=O)c1C)C1CCOCC1 + CC(CO)NC(=O)c1cc(-c2ccc(Cl)cc2)nn(-c2cnn(C)c2)c1=O ?
Data returned: 106

---

Property: viability, T/C; scope: individual molecules
Tested on: DMS-114 complex spheroids with HUVEC/MSC, growth % test/control
Test: Anticancer human tumor DMS-114 cell line growth inhibition [AhR];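 also: spheroids exposed to agents for 7 days before readout; 100% = DMSO vehicle control wells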
Conditions: second compound 0.316 µM; first compound 0.0316 µM; hits give low values
From the text: Multicellular complex tumor spheroid response to aryl hydrocarbon receptor antagonists in combination with a variety of drugs and investigational agents in selected tumor cell lines […] Compounds. […] If the clinical Cmax for an agent had not been determined, the highest concentration tested was 10 microM (Table 1). […]
Report the value in % with no unit label.

Take a look at these entries with their results.
{"columns": ["Molecule", "viability, T/C / %"],
 "data": [
  ["CC1(C)CCC(CN2CCN(c3ccc(C(=O)NS(=O)(=O)c4ccc(NCC5CCOCC5)c([N+](=O)[O-])c4)c(Oc4cnc5[nH]ccc5c4)c3)CC2)=C(c2ccc(Cl)cc2)C1 + CC(CO)NC(=O)c1cc(-c2ccc(Cl)cc2)nn(-c2cnn(C)c2)c1=O", 95.7],
  ["COc1cccc2c1C(=O)c1c(O)c3c(c(O)c1C2=O)CC(O)(C(=O)CO)CC3OC1CC(N)C(O)C(C)O1 (stereo not given) + CC(CO)NC(=O)c1cc(-c2ccc(Cl)cc2)nn(-c2cnn(C)c2)c1=O", 51.2],
  ["CC1COCCN1c1cc(-c2ccnn2C)c2ccnc(-c3ccn[nH]3)c2n1 (stereo not given) + Cc1cncc(-c2nc(NCCc3c[nH]c4ccccc34)c3ncn(C(C)C)c3n2)c1", 61.8],
  ["COc1cc(C2c3cc4c(cc3C(OC3OC5COC(C)OC5C(O)C3O)C3COC(=O)C23)OCO4)cc(OC)c1O (stereo not given) + Cc1cncc(-c2nc(NCCc3c[nH]c4ccccc34)c3ncn(C(C)C)c3n2)c1", 96.4]
]}

Could you now consider this next molecule?
Data request: What does the record list as viability, T/C for Nc1ccccc1NC(=O)c1ccc(CNC(=O)OCc2cccnc2)cc1 + CC(CO)NC(=O)c1cc(-c2ccc(Cl)cc2)nn(-c2cnn(C)c2)c1=O ?
Data returned: 87

---

System: DMS-114 complex spheroids with HUVEC/MSC, growth % test/control
Assay: Anticancer human tumor DMS-114 cell line growth inhibition [AhR]; active means viability on the fitted dose curve at most 10% of control; inactive means the rest;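 also: spheroids exposed to agents for 7 days before readout; 100% = DMSO vehicle control wells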
Conditions: second compound 1 µM; first compound 0.316 µM
The reply should name one outcome from YES = active, NO = inactive

Examples with answers:
{"columns": ["Molecule", "Label class"],
 "data": [
  ["Nc1ccccc1NC(=O)c1ccc(CNC(=O)OCc2cccnc2)cc1 + CC(CO)NC(=O)c1cc(-c2ccc(Cl)cc2)nn(-c2cnn(C)c2)c1=O", "NO"],
  ["CC1(C)CCC(CN2CCN(c3ccc(C(=O)NS(=O)(=O)c4ccc(NCC5CCOCC5)c([N+](=O)[O-])c4)c(Oc4cnc5[nH]ccc5c4)c3)CC2)=C(c2ccc(Cl)cc2)C1 + Cc1cncc(-c2nc(NCCc3c[nH]c4ccccc34)c3ncn(C(C)C)c3n2)c1", "NO"]
]}

Data request: Outcome? CC1COCCN1c1cc(-c2ccnn2C)c2ccnc(-c3ccn[nH]3)c2n1 (stereo unspecified) + Cc1cncc(-c2nc(NCCc3c[nH]c4ccccc34)c3ncn(C(C)C)c3n2)c1
Data returned: NO

Data request: Assay result, entry CC1COCCN1c1cc(C2(S(C)(=N)=O)CC2)nc(-c2ccnc3[nH]ccc23)n1 (stereo unspecified) + CC(CO)NC(=O)c1cc(-c2ccc(Cl)cc2)nn(-c2cnn(C)c2)c1=O — outcome?
Data returned: NO

Data request: Outcome logged for COc1ccc([C@@H](O)c2cc(-c3ncnc4cc(N5CCOCC5)ccc34)c(F)cc2Cl)nn1 + CC(CO)NC(=O)c1cc(-c2ccc(Cl)cc2)nn(-c2cnn(C)c2)c1=O in this assay:
Data returned: NO

Data request: Fill in: this test's call for Nc1ccn(C2OC(CO)C(O)C2(F)F)c(=O)n1 (stereo unspecified) + Cc1cncc(-c2nc(NCCc3c[nH]c4ccccc34)c3ncn(C(C)C)c3n2)c1 is ___
Data returned: YES

---

Test system: DMS-114 complex spheroids with HUVEC/MSC, growth % test/control
Assay: Anticancer human tumor DMS-114 cell line growth inhibition [AhR];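 also: spheroids exposed to agents for 7 days before readout; 100% = DMSO vehicle control wells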
Details: second compound 1 µM; first compound 0.0316 µM; hits give low values
Text: Multicellular complex tumor spheroid response to aryl hydrocarbon receptor antagonists in combination with a variety of drugs and investigational agents in selected tumor cell lines […] Compounds. […] If the clinical Cmax for an agent had not been determined, the highest concentration tested was 10 microM (Table 1). […]
Readout label: viability, T/C

{"columns": ["Compound", "Result"],
 "data": [
  ["CC1COCCN1c1cc(-c2ccnn2C)c2ccnc(-c3ccn[nH]3)c2n1 (stereo unspecified) + Cc1cncc(-c2nc(NCCc3c[nH]c4ccccc34)c3ncn(C(C)C)c3n2)c1", "55.3%"],
  ["CC1(C)CCC(CN2CCN(c3ccc(C(=O)NS(=O)(=O)c4ccc(NCC5CCOCC5)c([N+](=O)[O-])c4)c(Oc4cnc5[nH]ccc5c4)c3)CC2)=C(c2ccc(Cl)cc2)C1 + Cc1ccccc1N=Nc1ccc(NC(=O)c2ccnn2C)c(C)c1", "105%"],
  ["Cn1ncnc1C1c2n[nH]c(=O)c3cc(F)cc(c23)NC1c1ccc(F)cc1 (stereo unspecified) + Cc1cncc(-c2nc(NCCc3c[nH]c4ccccc34)c3ncn(C(C)C)c3n2)c1", "93.3%"],
  ["Nc1ccn(C2OC(CO)C(O)C2(F)F)c(=O)n1 (stereo unspecified) + CC(CO)NC(=O)c1cc(-c2ccc(Cl)cc2)nn(-c2cnn(C)c2)c1=O", "12.6%"],
  ["COc1cc(C2c3cc4c(cc3C(OC3OC5COC(C)OC5C(O)C3O)C3COC(=O)C23)OCO4)cc(OC)c1O (stereo unspecified) + Cc1ccccc1N=Nc1ccc(NC(=O)c2ccnn2C)c(C)c1", "97.7%"]
]}

// moving on: another record for viability, T/C
Data request: # viability, T/C lookup, item CC[C@@]1(O)C(=O)OCc2c1cc1n(c2=O)Cc2cc3c(CN(C)C)c(O)ccc3nc2-1 + CC(CO)NC(=O)c1cc(-c2ccc(Cl)cc2)nn(-c2cnn(C)c2)c1=O
Data returned: 54.6%
